// values below are reported pIC50
- System: Streptococcus pneumoniae
- Assay type: cell-based
Where no end group is shown, it is not given here.
Note: pIC50 values are expressed as the negative base-10 logarithm of concentration in M.

Substance: RWRKRWRKWRWRKRWRK-NH2 (C-terminus assumed) [MU_32]
pIC50: 4.34

Substance: RRWRKRWRKWRWRKRWRK-NH2 (C-terminus assumed) [MU_28]
pIC50: 4.34

Substance: Ac-WRWRKRWRKWRWRKRWRK-NH2 [MU_27]
pIC50: 4.34

Substance: RRWRKRWRKRRWRKRWRK-NH2 (C-terminus assumed) [MU_33]
pIC50: 4.28

Substance: KRWRKRWRKWRWRKRWRK-NH2 (C-terminus assumed) [MU_29]
pIC50: 4.28

Substance: HRWRKRWRKWRWRKRWRK-NH2 (C-terminus assumed) [MU_31]
pIC50: 4.38

Substance: Ac-LRKLRKRLLLRKLRKRLL-NH2 [MU_10]
pIC50: 4.35

Substance: LRWRKRWRKLRWRKRWRK-NH2 (C-terminus assumed) [MU_35]
pIC50: 4.28

Pending substance:
(Q) Enter pIC50 (test system Streptococcus pneumoniae) for LRWRKRWRKWRWRKRWRK-NH2 (C-terminus assumed) [MU_30]
(A) 4.42
